The measured values listed here are drawn from PubChem BioAssay AID1361.

Test: blockers of mitochondrial fusion, WT vs mutant – cell-based, chemical genetic, wild-type and mutant, confirmation (AID 1361)
Conditions: Cell-based mitochondrial fusion phenotype, imaging, WT cells
Activity calls are given as the source filed them. How the calls were made is not given here.
Could you please pick one outcome from this set? 1.0 = active, 0.0 = inactive

Input line: Outcome? CCOc1ccccc1N1CCN(C(=O)Nc2ccc(Cl)c(Cl)c2)CC1
Output line: 0.0

Input line: Then Cc1cccc2sc(NC(=O)c3ccc(NS(=O)(=O)c4cccs4)cc3)nc12 ?
Output line: 0.0

Input line: Then Cc1cc(C)cc(NC(=S)NC2CC3CCC(C2)N3Cc2ccco2)c1 (stereo not given) ?
Output line: 0.0

Input line: Then COC(=O)C1=C(C)N(C(C)c2ccccc2)C(=O)/C1=C\c1ccco1 (stereo not given) ?
Output line: 1.0

Input line: Then O=C(O)C1C2C=CC(C2)C1C(=O)Nc1ccc(C(=O)N2CCCCC2)cc1 (stereo not given) ?
Output line: 0.0

Input line: Then CC12CC3(C)CC(C)(C1)CC(C(=O)NC(=S)NC(C)(C)C)(C2)C3 ?
Output line: 1.0

Input line: Then CC1(C)C=C2[C@H]3CC[C@@H]4[C@@]5(C)CCC(=O)C(C)(C)[C@@H]5CC[C@@]4(C)[C@]3(C)CC[C@@]2(C(=O)O)CC1 ?
Output line: 1.0

Input line: Then CCN(Cc1ccccc1)C(c1cccs1)c1nnnn1C1CCCCC1 (stereo not given) ?
Output line: 1.0

Input line: Then COc1ccc(NC(=O)Nc2cccc([N+](=O)[O-])c2)cc1Cl ?
Output line: 0.0

Input line: Then Brc1cnc(N2CCCCC2)nc1N1CCOCC1 ?
Output line: 0.0

----------
Test: blockers of mitochondrial fusion, WT vs mutant – cell-based, chemical genetic, wild-type and mutant, confirmation (AID 1361)
Conditions: Cell-based mitochondrial fusion phenotype, imaging, WT cells
Active and inactive are the calls of the source. No rule for the calls is given here.
Could you please pick one outcome from this set? true (1) = active, false (0) = inactive

Record excerpt, results attached:
• O=Nc1c(O)n(Cc2cccc(Cl)c2)c2ccccc12 = false (0)
• COc1cccc2cc(C(=O)N3CCc4ccccc43)c(=O)oc12 = false (0)
• CC1CCCN(c2nc3c(c(=O)[nH]c(=O)n3C)n2Cc2ccccc2Cl)C1 (centres undefined) = true (1)
• Cc1ccc(NC(=S)N(Cc2cccc(Br)c2)CC2CCC(C(=O)O)CC2)cc1Cl (centres undefined) = true (1)

Input line: Outcome? O=c1c2c3c(sc2nc(NCCO)n1CCc1ccccc1)CCCCC3
Output line: true (1)

Input line: Then CCOC(=O)C1CCCN(C(=O)CS(=O)(=O)Cc2ccccc2)C1 (centres undefined) ?
Output line: false (0)

Input line: Then N#CC1=C(N)NC(SCc2ccc(Br)cc2)=C(C#N)C12CCCCC2 ?
Output line: false (0)

Input line: Then Cc1ccc(-n2cc(CNCCc3cscn3)c(-c3ccc(F)cc3)n2)cc1 ?
Output line: false (0)

Input line: Then CC(C)(C)c1ccc(CN2N=C(/C=C/c3ccccc3)CCC2=O)cc1 ?
Output line: true (1)

Input line: Then COC(=O)C1CN(C#N)N(c2ccc(Cl)cc2)C12c1ccccc1-c1ccccc12 (centres undefined) ?
Output line: true (1)

Input line: Then Fc1ccc(Nc2nc(N/N=C/c3ccco3)nc(N3CCCCC3)n2)cc1 ?
Output line: true (1)

Input line: Then COc1ccc(-n2cc(-c3ccccc3)c3c(N4CC(C)OC(C)C4)ncnc32)cc1 (centres undefined) ?
Output line: true (1)

Input line: Then COc1ccccc1NC1=C(Cl)C(=O)N(C2CCCCC2)C1=O ?
Output line: true (1)

Input line: Then CCn1c(O)c(C(c2ccccn2)c2c(O)n(CC)c(=S)[nH]c2=O)c(=O)[nH]c1=S ?
Output line: false (0)
